- Tested on: UACC-257 melanoma
- Assay Method Text: NCI tumour cell line growth inhibition, 48 h
# maps each entry to its TGI

Solved cases below.
>  <Molecule>
COc1ccc2nc(-c3ccccc3)c(=O)[nH]c2c1

>  <Assay Endpoint>
TGI

>  <Result>
> 100 µM

$$$$
>  <Molecule>
O=C(CBr)c1ccc2cc(Br)c3ccccc3c2c1

>  <Assay Endpoint>
TGI

>  <Result>
49.9 µM

$$$$
>  <Molecule>
C=C1C(=O)OC2C1CC(OC(C)=O)/C(C)=C/CCC1(C)OC21 (stereo not given)

>  <Assay Endpoint>
TGI

>  <Result>
> 100 µM

$$$$
>  <Molecule>
Nc1c(S(=O)(=O)c2ccccc2)c2nc3ccccc3nc2n2c1nc1ccccc12

>  <Assay Endpoint>
TGI

>  <Result>
> 100 µM

$$$$
>  <Molecule>
O=C1c2ccccc2C(=O)c2c(NCCN=Cc3ccccc3O)cccc21

>  <Assay Endpoint>
TGI

>  <Result>
13.4 µM

$$$$

What value of TGI has been reported for the following molecule? CC(=O)NC1C(Sc2ncn(C3OC(CO)C(O)C(O)C3NC(C)=O)n2)OC(CO)C(O)C1O (stereo not given) > 100 µM

// query: "COc1cc(-c2nnc3n2NC=C(C(=O)O)S3)cc(OC)c1OC" > 100 µM

// query: "COc1cccc(CC(=O)N2CCN(CCCc3ccccc3)CC2)c1" > 100 µM

// query: CCC[CH2][Sn]1([CH2]CCC)[O]CC(COc2c(Cl)cc(Cl)cc2Cl)[O]1 (stereo not given) 2.33 µM

// query: "O=C1c2ccc3c4ccccc4n(-c4ccccc4)c3c2C(=O)N1c1ccc(Cl)cc1" > 100 µM

// query: "O=C(N[C@@H](Cc1coc2ccccc12)B(O)O)[C@@H]1C[C@H]2CC[C@@H]1O2" > 100 µM

* * *

- Tested on: LOX IMVI melanoma
- Assay Method Text: NCI tumour cell line growth inhibition, 48 h
# maps each entry to its TGI
Number only, in µM; omit the unit.

>  <Molecule>
C=CC1(CC[C@]2(c3ccc(OC)c(OC)c3)C=[N+]([O-])O[C@H](O[C@@H]3CCCC[C@H]3C(C)(C)c3ccccc3)C2)OCC(C)(C)CO1

>  <TGI / µM>
35.1

$$$$

Recall the recorded TGI for COc1ccc(C2COc3c(ccc(O)c3C)C2)cc1OC (configuration not stated) with LOX IMVI melanoma and state it. 128

// query: Cc1sc2c(c1C)C(c1ccc(Cl)cc1)=N[C@@H](CC(=O)Nc1ccc(OCCOCCOCCOCCNc3cccc4c3C(=O)N(C3CCC(=O)NC3=O)C4=O)cc1)c1nnc(C)n1-2 (some centres not stated) 19.1

* * *

- Test system: BT-549 breast
- Assay Method Text: NCI tumour cell line growth inhibition, 48 h
Assay Endpoint: log10 of TGI (log10 of the value in µM)
Give log10 of TGI, with TGI taken in µM.

>  <Molecule>
O=C1C(Br)=CC2(C=C1Br)CCNC1=C2C(=O)c2ncccc2C1=O

>  <Target Desc>
BT-549 breast

>  <Recorded Number>
0.44

$$$$
>  <Molecule>
COc1ccc2c(c1)c(-c1nc(-c3c[nH]c4ncccc34)cs1)cn2CCCCN1CCCCC1

>  <Target Desc>
BT-549 breast

>  <Recorded Number>
0.50

$$$$
>  <Molecule>
CCC1CC(O)c2c(O)c3c(c(O)c2C1O)C(=O)c1cccc(O)c1C3=O (centres undefined) (tested in a mixture with another compound)

>  <Target Desc>
BT-549 breast

>  <Recorded Number>
-1.15

$$$$

What value of log10 of TGI has been reported for the following molecule? "COc1cc(C(=O)O[C@H](C(N)=O)[C@]2(C)CO2)c2cccc(C)c2c1" -0.18

// query: "O=P1(Cc2ccccc2)N(Cc2ccccc2)[C@@H]2CCCC[C@H]2N1Cc1ccccc1" 1.53

// query: "CCCCCCCCCCCC(=O)OC[C@@H](C[As](=O)(O)O)OC(=O)CCCCCCCCCCC" 1.00

* * *

# maps each entry to its TGI
- Tested on: UACC-62 melanoma
- Assay Method Text: NCI tumour cell line growth inhibition, 48 h

Solved cases below.
>  <Compound>
O=C1c2ccccc2C(=O)N1C/C=N/NS(=O)(=O)c1ccc(Br)cc1

>  <TGI>
> 100 µM

$$$$
>  <Compound>
CC(C)(C)OC(=O)N1C2CCCC23O[C@@H]1c1cc2c(cc1C3=O)OCO2 (stereo not given in full)

>  <TGI>
67 µM

$$$$
>  <Compound>
O=c1[nH]c2nc3ccccc3c(=O)n2/c1=C/c1cccs1

>  <TGI>
> 100 µM

$$$$
>  <Compound>
CC1(C)O[C@H]2OC(CO)C(N=[N+]=[N-])[C@H]2O1 (stereo not given in full)

>  <TGI>
> 100 µM

$$$$
>  <Compound>
Nc1c(S(=O)(=O)c2ccccc2)c2nc3ccccc3nc2n2c1nc1ccccc12

>  <TGI>
> 100 µM

$$$$

What value of TGI has been reported for the following compound? "O=c1cc(NNc2cccc(Cl)c2)[nH]c(=O)[nH]1" > 100 µM

// query: "Cc1ccc2c(c1-c1ccccc1)C(=O)OC2" 92.8 µM

// query: "COc1ccc(CNc2nc(NC3CCCCC3)nc(NC3CCCCC3)n2)cc1" 50.9 µM

// query: "CCCO[C@@H]1[C@@H](OC(C)=O)[C@@H](OC(C)=O)C(C)(C)/C=C/[C@H](C)C(=O)[C@@]2(OC(C)=O)C[C@@](C)(OC(C)=O)[C@H](OC(C)=O)[C@@H]2[C@H]2OC(=O)CC[C@@]12OC(=O)c1ccccc1" > 25 µM

// query: "Cc1ccc2[c](c1)[Sn]([c]1ccccc1)([c]1ccccc1)[c]1cc(C)ccc1N2C" > 100 µM

// query: CCOC(=O)C1=C(N)Oc2c(sc3c(C)cccc23)C1c1ccc(F)cc1 (stereo not given) 13.5 µM

// query: CC(NC(=O)c1c(O)[nH]c(=S)[nH]c1=O)c1ccc([N+](=O)[O-])cc1 (stereo not given) > 100 µM

* * *

# maps each entry to its TGI
- System: SN12C renal
- Assay Method Text: NCI tumour cell line growth inhibition, 48 h

>  <Molecule>
C/C(=N\NC(=S)N1CCCC1)c1nc2ncccc2[nH]1

>  <TGI>
> 100 µM

$$$$
>  <Molecule>
CN1C(NNC(=O)c2cccnc2)=NS(=O)(=O)c2cc(Cl)ccc21

>  <TGI>
> 100 µM

$$$$

Now take the following molecule into account.
What value of TGI has been reported for the following molecule? O=C1CC2CCN(C(=O)c3ccccc3)CC2CCN1 (stereo not given) > 100 µM

* * *

# maps each entry to its TGI
- Tested on: M14 melanoma
- Assay Method Text: NCI tumour cell line growth inhibition, 48 h
Number only, in µM; omit the unit.

Solved cases below.
>  <Molecule>
C=C(C)[C@@H]1CC[C@]2(C)[C@H](CC[C@@H]3[C@@H]([C@@](C)(O)CCC=C(C)C)CC[C@]32C)[C@@]1(C)CCC(=O)O

>  <Unit Abbreviation>
µM

>  <Recorded Number>
36.1

$$$$
>  <Molecule>
CSc1ccc2c(cc1=O)[C@@H](NC(=O)c1cc(O)c(O)c(O)c1)CCc1cc(O)c(O)c(O)c1-2

>  <Unit Abbreviation>
µM

>  <Recorded Number>
36.6

$$$$

Now take the following molecule into account.
What value of TGI has been reported for the following molecule? O=C1OCC2OC(=O)c3cc(O)c(O)c(O)c3-c3c(O)c(O)c(O)c4c3C(=O)OC(C2OC(=O)c2cc(O)c(O)c(O)c2-c2c1cc(O)c(O)c2O)C1OC(=O)C2C4=C(O)C(=O)C23Oc2cc(O)c4c(c2[C@H]13)O[C@H](c1ccc(O)c(O)c1)[C@@H](O)C4 (some centres not stated) 29.6

* * *

# maps each entry to its TGI
- Test system: RXF 393 renal
- Assay Method Text: NCI tumour cell line growth inhibition, 48 h
Number only, in µM; omit the unit.

What value of TGI has been reported for the following compound? "CC(C)(C)c1cc(C(=O)/C=C/c2ccc(C(=O)O)cc2)cc(C(C)(C)C)c1" 4.34

// query: CCOC(=O)C1=C(N)Oc2c(sc3c(C)cccc23)C1c1ccc(F)cc1 (centres undefined) 0.639

// query: "O=C1C(Br)=CC2(C=C1Br)CCNC1=C2C(=O)c2ncccc2C1=O" 2.65

// query: NC(=O)CNc1ccc([As]=[As]c2ccc(NCC(N)=O)cc2)cc1 (centres undefined) 16.4

* * *

- System: K-562 leukemia
- Assay Method Text: NCI tumour cell line growth inhibition, 48 h
# maps each entry to its TGI

>  <Compound>
N#CC(C#N)=C1CCCOc2c1ccc1ccccc21

>  <Target Desc>
K-562 leukemia

>  <TGI>
43.5 µM

$$$$
>  <Compound>
c1ccc2c(c1)OCCOCCOc1ccccc1OCCO2

>  <Target Desc>
K-562 leukemia

>  <TGI>
> 100 µM

$$$$
>  <Compound>
CCc1cccc(C)c1NC(=O)CC1C(=O)Nc2ccccc2S1=O (stereo not drawn)

>  <Target Desc>
K-562 leukemia

>  <TGI>
> 100 µM

$$$$
>  <Compound>
CCOC(=O)CCC(NC(=O)c1ccc(NCc2ccc3nc(-c4ccccc4)c(Cl)nc3c2)cc1)C(=O)OCC (stereo not drawn)

>  <Target Desc>
K-562 leukemia

>  <TGI>
> 100 µM

$$$$
>  <Compound>
C=CCCC1(C)CCCNC1=S (stereo not drawn)

>  <Target Desc>
K-562 leukemia

>  <TGI>
> 100 µM

$$$$

What value of TGI has been reported for the following compound? CNC(C)[C@H]1CCC2C3CC=C4C(=O)[C@@H](NC(=O)C=C(C)C)CC[C@]4(C)C3CC[C@@]21C (stereo partly drawn) 2.19 µM

// query: "NCCCN(CCCN)CCc1cn(C(=O)c2ccccc2)cn1" > 37.4 µM

// query: "CC1(C)OP(=O)(O)C=C1Sc1ccc([N+](=O)[O-])cc1[N+](=O)[O-]" > 100 µM

Reference for the values: PubChem BioAssay (NCI)
